ASSAY DETAILS: NCI Yeast Anticancer Drug Screen. Data for the rad50 strain (AID 155);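 note: 0% = growth of vehicle-only cultures of the same strain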
ASSAY CONDITIONS: S. cerevisiae rad50 strain growth inhibition; at 50.0 µM; stronger effect = higher value
Compounds without any hit were thinned out: in the full panel of roughly 79,000, 15% have a hit. Calls of active or inactive are those of the source. Cut-off read from the data, not from the text of the source: active = growth inhibition above about 70%; inactive = the rest.
READOUT TYPE: growth inhibition

Task item: Field request: growth inhibition | item: CCCCC1(CCC)C(=O)NC(=O)NC1=O
Reply: 9.8% (inactive)

Task item: Field request: growth inhibition | item: Cc1cc(Nc2ccc(N(CCCl)CCCl)cc2)c(C)cc1O
Reply: 31.7% (inactive)

Task item: Field request: growth inhibition | item: C1CC[N+]2=C(C1)OCCC2
Reply: 12.1% (inactive)

Task item: Field request: growth inhibition | item: Oc1ccccc1C=NCCN=Cc1ccccc1O
Reply: -15.2% (inactive)

Task item: Field request: growth inhibition | item: C1CCN2COCC2C1 (configuration not stated)
Reply: -16.2% (inactive)

Task item: Field request: growth inhibition | item: O=[N+]([O-])c1cc(S(=O)(=O)F)cc(Cl)c1S
Reply: 98.9% (active)

Task item: Field request: growth inhibition | item: [C-]#[O+].[C-]#[O+].[C-]#[O+].[C-]#[O+].[Cr].c1ccc(P(CCP(CCP(c2ccccc2)c2ccccc2)c2ccccc2)CCP(c2ccccc2)c2ccccc2)cc1 (configuration not stated)
Reply: 20.7% (inactive)

Task item: Field request: growth inhibition | item: CC(=O)Nc1cc([As](C)(=O)O)ccc1O
Reply: -10.3% (inactive)

Task item: Field request: growth inhibition | item: COc1ccc2c(=O)c3ccccc3oc2c1CN(CCCl)CCCl
Reply: 19.9% (inactive)

Task item: Field request: growth inhibition | item: C=CCNCC(O)c1ccccc1 (configuration not stated)
Reply: 13.5% (inactive)

Task item: Field request: growth inhibition | item: O=P(O)(O)SP(=O)(O)O.[Zn+2]
Reply: -20.9% (inactive)

Task item: Field request: growth inhibition | item: COc1ccc2ccc([Se]c3ccc4ccc(OC)cc4c3)cc2c1
Reply: -1.25% (inactive)
